biological target: topoisomerase IV (wild-type ParC) (Staphylococcus aureus); construct: wild-type ParC from strain FDA209P; with ParE; assay: in vitro DNA cleavage assay with recombinant topoisomerase IV
Sequence (Q2FYS4 whole entry): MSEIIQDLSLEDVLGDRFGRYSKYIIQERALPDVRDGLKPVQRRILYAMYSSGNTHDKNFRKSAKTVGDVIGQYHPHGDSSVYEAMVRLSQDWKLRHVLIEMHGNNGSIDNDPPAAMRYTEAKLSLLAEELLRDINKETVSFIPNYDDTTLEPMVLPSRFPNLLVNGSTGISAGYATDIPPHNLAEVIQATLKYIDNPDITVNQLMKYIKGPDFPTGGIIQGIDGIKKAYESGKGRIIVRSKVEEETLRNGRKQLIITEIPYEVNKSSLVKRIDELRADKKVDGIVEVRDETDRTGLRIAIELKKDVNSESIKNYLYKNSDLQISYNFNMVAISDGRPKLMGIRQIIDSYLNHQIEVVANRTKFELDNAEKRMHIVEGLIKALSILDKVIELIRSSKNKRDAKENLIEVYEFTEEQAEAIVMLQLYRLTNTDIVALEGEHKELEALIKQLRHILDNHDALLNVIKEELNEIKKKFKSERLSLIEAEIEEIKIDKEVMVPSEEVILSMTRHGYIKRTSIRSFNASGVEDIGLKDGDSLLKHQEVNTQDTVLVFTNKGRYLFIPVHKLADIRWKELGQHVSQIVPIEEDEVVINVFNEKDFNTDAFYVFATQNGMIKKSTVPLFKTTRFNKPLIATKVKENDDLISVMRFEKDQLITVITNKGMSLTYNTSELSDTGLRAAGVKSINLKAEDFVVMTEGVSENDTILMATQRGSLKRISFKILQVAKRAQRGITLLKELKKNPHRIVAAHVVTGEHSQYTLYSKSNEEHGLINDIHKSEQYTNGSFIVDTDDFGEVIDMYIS
pIC50: −log10 of the molar value.

{"Smiles Repr": "C[C@H]1COc2c(N3CCN(C)CC3)c(F)cc3c(=O)c(C(=O)O)cn1c23", "Target Or Test System": "topoisomerase IV (wild-type ParC) (Staphylococcus aureus)", "pIC50": 5.86}
